Reported melting point values for the following molecules.

Below: 3 molecules and their reported melting point.
Compound String: C#CCOc1ccc(C(=O)/C=C/c2ccc(Cl)cc2Cl)c(OC)c1
melting point: 174 to 175 °C
//
Compound String: CC(C)=CCOc1ccc(C(=O)/C=C/c2cccnc2)cc1
melting point: 87 to 88 °C
//
Compound String: CC(C)=CCOc1ccc(C(=O)/C=C/c2ccncc2)cc1
melting point: 91 to 93 °C

The value of melting point measured for the molecule `C#CCOc1ccc(C(=O)/C=C/c2ccc(Cl)cc2Cl)c(OCC#C)c1` turned out to be 166 to 168 °C

The value of melting point measured for the molecule `CC(C)=CCOc1ccc(C(=O)/C=C/c2ccc([N+](=O)[O-])cc2)cc1` turned out to be 100 to 102 °C

The value of melting point measured for the molecule `C#CCOc1ccc(C(=O)/C=C/c2ccncc2)cc1` turned out to be 99 to 101 °C

The value of melting point measured for the molecule `C#CCOc1ccc(C(=O)/C=C/c2cccnc2)cc1` turned out to be 96 to 98 °C

The value of melting point measured for the molecule `C#CCOc1ccc(C(=O)/C=C/c2ccc([N+](=O)[O-])cc2)cc1` turned out to be 103 to 105 °C

The value of melting point measured for the molecule `CC(C)=CCOc1ccc(C(=O)/C=C/c2ccc(Cl)cc2Cl)c(O)c1` turned out to be 191 to 193 °C

====

Assay Method Text: Cytotoxicity test on Vero cells (WST8/CCK-8 cell viability)
Type: cell-based, African green monkey
Condition Set: African green monkey, Vero cells (ATCC CCL-81), Vero cells, mean and 95% confidence interval, read-out: CC50
Measured Parameter: CC50 at 72 h (µM)
Unit µM implied. Number only.

Below: 3 molecules and their reported CC50 at 72 h.
Molecule: C#CCOc1ccc(C(=O)/C=C/c2cccnc2)c(OCC#C)c1 [Compound 24]
CC50 at 72 h [µM]: 13
//
Molecule: O=C(/C=C/c1cccc(F)c1)c1cc(F)ccc1O [Compound 7]
CC50 at 72 h [µM]: 182
//
Molecule: O=C(/C=C/c1ccc(F)cc1)c1ccc(OCCO)cc1 [Compound 31]
CC50 at 72 h [µM]: 8.3

The value of CC50 at 72 h measured for the molecule C#CCOc1ccc(C(=O)/C=C/c2ccncc2)c(OC)c1 [Compound 13] turned out to be 7.3

The value of CC50 at 72 h measured for the molecule CC(C)=CCOc1ccc(C(=O)/C=C/c2ccncc2)c(O)c1 [Compound 21] turned out to be 14.8

The value of CC50 at 72 h measured for the molecule C#CCOc1ccc(C(=O)/C=C/c2cccnc2)c(O)c1 [Compound 16] turned out to be 17.8

====

System: C. parapsilosis
Assay Method Text: In vitro susceptibility testing, C. parapsilosis clinical isolate
Assay type: cell-based
Condition Set: Lodderomyces parapsilosis; Table S1, best-fit; C. parapsilosis; read-out: IC50
Measured Parameter: IC50 (µM)
Unit µM implied. Number only.

Record `COc1cc(OCCN2CCN(c3ccccc3)CC2)ccc1C(=O)/C=C/c1ccc(F)cc1` has C. parapsilosis IC50 equal to 31.3

====

Tested on: R. mucilaginosa
Assay Method Text: In vitro susceptibility testing, R. mucilaginosa clinical isolate
Type: cell-based
Condition Set: Table S2, best-fit; R. mucilaginosa; read-out: IC50
Measured Parameter: IC50 (µM)
Unit µM implied. Number only.

The value of IC50 measured for the compound `COc1cc(OCCN2CCN(c3ccccc3)CC2)ccc1C(=O)/C=C/c1ccc(F)cc1` turned out to be 46.2

====

System: C. glabrata
Assay Method Text: In vitro susceptibility testing, C. glabrata clinical isolate
Type: cell-based
Condition Set: Nakaseomyces glabratus; Table S1, best-fit; C. glabrata; read-out: IC50
Measured Parameter: IC50 (µM)
Unit µM implied. Number only.

The value of IC50 measured for the compound COc1cc(OCCN2CCN(c3ccccc3)CC2)ccc1C(=O)/C=C/c1ccc(F)cc1 [Compound 28] turned out to be 35.9

====

Assay Method Text: Cytotoxicity test on Vero cells (WST8/CCK-8 cell viability)
Type: cell-based, African green monkey
Condition Set: African green monkey, Vero cells (ATCC CCL-81), Vero cells, mean and 95% confidence interval, read-out: CC50 [μg/mL]
Reported CC50 at 72 h values for the following compounds.
Unit µg/mL implied. Number only.

Below: 5 compounds and their reported CC50 at 72 h.
Compound String: O=C(/C=C/c1ccccc1)c1cc(Cl)ccc1O
CC50 at 72 h [µg/mL]: 45
--
Compound String: C#CCOc1ccc(C(=O)/C=C/c2ccncc2)c(OC)c1
CC50 at 72 h [µg/mL]: 2.1
--
Compound String: C#CCOc1ccc(C(=O)/C=C/c2cccnc2)c(OCC#C)c1
CC50 at 72 h [µg/mL]: 3.8
--
Compound String: C#CCOc1ccc(C(=O)/C=C/c2cccnc2)c(OC)c1
CC50 at 72 h [µg/mL]: 4
--
Compound String: CC(C)=CCOc1ccc(C(=O)/C=C/c2cccnc2)c(O)c1
CC50 at 72 h [µg/mL]: 15.9

The value of CC50 at 72 h measured for the compound `C#CCOc1ccc(C(=O)/C=C/c2ccncc2)c(OCC#C)c1` turned out to be 2.7

The value of CC50 at 72 h measured for the compound `C#CCOc1ccc(C(=O)/C=C/c2ccc([N+](=O)[O-])cc2)c(OCC#C)c1` turned out to be 1.5

The value of CC50 at 72 h measured for the compound `O=C(/C=C/c1cccc(F)c1)c1cc(Cl)ccc1O` turned out to be 42

The value of CC50 at 72 h measured for the compound `O=C(/C=C/c1cccc(F)c1)c1cc(F)ccc1O` turned out to be 47.3

====

Assay Method Text: Cytotoxicity test on Vero cells (WST8/CCK-8 cell viability)
Assay type: cell-based, African green monkey
Condition Set: African green monkey, Vero cells (ATCC CCL-81), Vero cells, mean and 95% confidence interval, read-out: CC50
Measured Parameter: CC50 at 72 h (µM)
Unit µM implied. Number only.

Compound: O=C(/C=C/c1ccccc1)c1cc(Cl)ccc1O [Compound 1]
Reported Measurement: 174
--
Compound: CC(C)=CCOc1ccc(C(=O)/C=C/c2cccnc2)c(O)c1 [Compound 20]
Reported Measurement: 54.3
--
Compound: O=C(/C=C/c1cccc(F)c1)c1cc(Cl)ccc1O [Compound 3]
Reported Measurement: 152
--
Compound: C#CCOc1ccc(C(=O)/C=C/c2ccc([N+](=O)[O-])cc2)c(OCC#C)c1 [Compound 26]
Reported Measurement: 5.1
--
Compound: C#CCOc1ccc(C(=O)/C=C/c2ccncc2)c(OCC#C)c1 [Compound 25]
Reported Measurement: 9.1

Query compound follows.
The value of CC50 at 72 h measured for the compound C#CCOc1ccc(C(=O)/C=C/c2cccnc2)c(OC)c1 [Compound 12] turned out to be 13.6

====

Assay Method Text: Cytotoxicity test on Vero cells (WST8/CCK-8 cell viability)
Assay type: cell-based, African green monkey
Condition Set: African green monkey, Vero cells (ATCC CCL-81), Vero cells, mean and 95% confidence interval, read-out: CC50 [μg/mL]
Description: African green monkey kidney cells (Vero ATCC CCL-81) were cultured in Eagle’s Minimal Essential Medium (MEM) (Sigma-Aldrich), supplemented with 10% fetal bovine serum (FBS) (Carlo Erba Reagents, Milan, Italy), 100 U/mL penicillin, and 100 µg/mL streptomycin at 37 °C with 5% CO2. […] The cell viability was assessed by a WST8-based assay according to the manufacturer’s instructions (CCK-8, Cell Counting Kit-8, Dojindo Molecular Technologies, Rockville, MD, USA). […]
Measured Parameter: CC50 at 72 h (µg/mL)
Unit µg/mL implied. Number only.

Compound String: C#CCOc1ccc(C(=O)/C=C/c2cccnc2)c(O)c1
Reported Measurement: 5.2

The value of CC50 at 72 h measured for the compound `CC(C)=CCOc1ccc(C(=O)/C=C/c2ccncc2)c(O)c1` turned out to be 4.3

The value of CC50 at 72 h measured for the compound `O=C(/C=C/c1ccc(F)cc1)c1ccc(OCCO)cc1` turned out to be 2.4

====

Reported CC50 at 72 h values for the following molecules.
Assay Method Text: Cytotoxicity test on Vero cells (WST8/CCK-8 cell viability)
Type: cell-based, African green monkey
Condition Set: African green monkey, Vero cells (ATCC CCL-81), Vero cells, mean and 95% confidence interval, read-out: CC50 [μg/mL]
Description: African green monkey kidney cells (Vero ATCC CCL-81) were cultured in Eagle’s Minimal Essential Medium (MEM) (Sigma-Aldrich), supplemented with 10% fetal bovine serum (FBS) (Carlo Erba Reagents, Milan, Italy), 100 U/mL penicillin, and 100 µg/mL streptomycin at 37 °C with 5% CO2. […] The cell viability was assessed by a WST8-based assay according to the manufacturer’s instructions (CCK-8, Cell Counting Kit-8, Dojindo Molecular Technologies, Rockville, MD, USA). […]

Compound String: O=C(/C=C/c1ccc(F)cc1)c1cc(Cl)ccc1O
CC50 at 72 h: > 55.3 µg/mL

The value of CC50 at 72 h measured for the molecule `COc1cc(OCCN2CCN(c3ccccc3)CC2)ccc1C(=O)/C=C/c1ccc(F)cc1` turned out to be > 99.2 µg/mL

The value of CC50 at 72 h measured for the molecule `O=C(/C=C/c1cc(F)cc(F)c1)c1cc(Cl)ccc1O` turned out to be > 58.9 µg/mL

The value of CC50 at 72 h measured for the molecule `C#CCOc1ccc(C(=O)/C=C/c2ccc([N+](=O)[O-])cc2)c(OC)c1` turned out to be > 58.6 µg/mL
